# Target Or System: T1, cynomolgus SIRPβ1v3 extracellular domain + His-tag (XP_005568593) (cynomolgus monkey)
# T1 construct: also called Cyno SIRPβ1v3; cynoSIRPβ1v3
# T1 chain: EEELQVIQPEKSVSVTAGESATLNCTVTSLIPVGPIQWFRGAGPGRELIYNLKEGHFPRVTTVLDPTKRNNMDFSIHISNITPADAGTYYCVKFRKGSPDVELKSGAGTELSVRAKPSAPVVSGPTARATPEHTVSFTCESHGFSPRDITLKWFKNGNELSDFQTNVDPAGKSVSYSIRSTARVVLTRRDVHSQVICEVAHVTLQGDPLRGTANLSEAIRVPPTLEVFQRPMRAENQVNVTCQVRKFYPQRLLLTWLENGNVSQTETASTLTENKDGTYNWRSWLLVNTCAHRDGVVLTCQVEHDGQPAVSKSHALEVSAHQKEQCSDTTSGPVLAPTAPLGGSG
# Test Method Notes: SPR, Ab captured, ECD-His analyte
Measured Kd by item

Binder: Antibody A16 (antibody, human IgG1, kappa, L234A L235A, V domains shown) VH: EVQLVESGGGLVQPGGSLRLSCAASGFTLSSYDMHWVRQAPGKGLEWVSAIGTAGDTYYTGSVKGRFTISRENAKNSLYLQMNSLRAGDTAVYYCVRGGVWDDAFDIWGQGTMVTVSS VL: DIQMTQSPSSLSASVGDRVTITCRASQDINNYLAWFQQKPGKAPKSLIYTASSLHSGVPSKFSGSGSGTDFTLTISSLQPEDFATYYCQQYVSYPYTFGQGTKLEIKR
Display Unit: nM
Kd: 225
//
Binder: Antibody A2 (antibody, human IgG1, kappa, L234A L235A, V domains shown) VH: EVQLVESGGGLVQPGGSLRLSCAASGFTLSSYDMHWVRQATGKGLEWVSAIGTAGDTYYTGSVKGRFTISRENAKNSLYLQMNSLRAADTAVYYCVRGGVWDDAFDIWGQGTMVTVSS VL: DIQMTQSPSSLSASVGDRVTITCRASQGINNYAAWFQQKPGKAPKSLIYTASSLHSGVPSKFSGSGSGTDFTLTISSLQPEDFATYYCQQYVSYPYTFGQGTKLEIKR
Display Unit: nM
Kd: 552
//
Binder: Antibody A8 (antibody, human IgG1, kappa, L234A L235A, V domains shown) VH: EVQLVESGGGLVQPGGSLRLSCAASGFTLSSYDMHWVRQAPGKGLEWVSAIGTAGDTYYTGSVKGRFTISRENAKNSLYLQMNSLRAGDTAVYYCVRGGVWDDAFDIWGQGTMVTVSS VL: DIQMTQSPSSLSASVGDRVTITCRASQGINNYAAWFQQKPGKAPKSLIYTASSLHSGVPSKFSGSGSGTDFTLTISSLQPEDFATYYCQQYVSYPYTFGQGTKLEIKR
Display Unit: nM
Kd: 449
//
Binder: Antibody A3 (antibody, human IgG1, kappa, L234A L235A, V domains shown) VH: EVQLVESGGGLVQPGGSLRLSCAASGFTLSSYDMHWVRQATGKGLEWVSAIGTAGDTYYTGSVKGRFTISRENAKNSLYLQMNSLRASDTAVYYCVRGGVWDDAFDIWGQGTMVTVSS VL: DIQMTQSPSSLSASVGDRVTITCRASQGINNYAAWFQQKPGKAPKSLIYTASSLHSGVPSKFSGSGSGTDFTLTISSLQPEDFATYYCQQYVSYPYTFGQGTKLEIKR
Display Unit: nM
Kd: 564
//
Binder: Antibody A1 (antibody, human IgG1, kappa, L234A L235A, V domains shown, also called Antibody Al) VH: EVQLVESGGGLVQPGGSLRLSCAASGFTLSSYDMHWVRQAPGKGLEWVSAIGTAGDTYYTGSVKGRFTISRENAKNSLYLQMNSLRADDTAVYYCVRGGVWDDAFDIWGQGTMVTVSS VL: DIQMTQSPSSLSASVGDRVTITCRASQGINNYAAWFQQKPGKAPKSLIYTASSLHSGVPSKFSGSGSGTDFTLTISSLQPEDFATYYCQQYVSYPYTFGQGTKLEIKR
Display Unit: nM
Kd: 557
